# EXPERIMENTAL_TARGET: ΔF508-CFTR (Homo sapiens, UniProt P13569, DEL508-508)
# Construct: host or cells: CFBE41o-, doxycycline-inducible
# Sequence (P13569 with tags, fused parts or gaps DEL508-508): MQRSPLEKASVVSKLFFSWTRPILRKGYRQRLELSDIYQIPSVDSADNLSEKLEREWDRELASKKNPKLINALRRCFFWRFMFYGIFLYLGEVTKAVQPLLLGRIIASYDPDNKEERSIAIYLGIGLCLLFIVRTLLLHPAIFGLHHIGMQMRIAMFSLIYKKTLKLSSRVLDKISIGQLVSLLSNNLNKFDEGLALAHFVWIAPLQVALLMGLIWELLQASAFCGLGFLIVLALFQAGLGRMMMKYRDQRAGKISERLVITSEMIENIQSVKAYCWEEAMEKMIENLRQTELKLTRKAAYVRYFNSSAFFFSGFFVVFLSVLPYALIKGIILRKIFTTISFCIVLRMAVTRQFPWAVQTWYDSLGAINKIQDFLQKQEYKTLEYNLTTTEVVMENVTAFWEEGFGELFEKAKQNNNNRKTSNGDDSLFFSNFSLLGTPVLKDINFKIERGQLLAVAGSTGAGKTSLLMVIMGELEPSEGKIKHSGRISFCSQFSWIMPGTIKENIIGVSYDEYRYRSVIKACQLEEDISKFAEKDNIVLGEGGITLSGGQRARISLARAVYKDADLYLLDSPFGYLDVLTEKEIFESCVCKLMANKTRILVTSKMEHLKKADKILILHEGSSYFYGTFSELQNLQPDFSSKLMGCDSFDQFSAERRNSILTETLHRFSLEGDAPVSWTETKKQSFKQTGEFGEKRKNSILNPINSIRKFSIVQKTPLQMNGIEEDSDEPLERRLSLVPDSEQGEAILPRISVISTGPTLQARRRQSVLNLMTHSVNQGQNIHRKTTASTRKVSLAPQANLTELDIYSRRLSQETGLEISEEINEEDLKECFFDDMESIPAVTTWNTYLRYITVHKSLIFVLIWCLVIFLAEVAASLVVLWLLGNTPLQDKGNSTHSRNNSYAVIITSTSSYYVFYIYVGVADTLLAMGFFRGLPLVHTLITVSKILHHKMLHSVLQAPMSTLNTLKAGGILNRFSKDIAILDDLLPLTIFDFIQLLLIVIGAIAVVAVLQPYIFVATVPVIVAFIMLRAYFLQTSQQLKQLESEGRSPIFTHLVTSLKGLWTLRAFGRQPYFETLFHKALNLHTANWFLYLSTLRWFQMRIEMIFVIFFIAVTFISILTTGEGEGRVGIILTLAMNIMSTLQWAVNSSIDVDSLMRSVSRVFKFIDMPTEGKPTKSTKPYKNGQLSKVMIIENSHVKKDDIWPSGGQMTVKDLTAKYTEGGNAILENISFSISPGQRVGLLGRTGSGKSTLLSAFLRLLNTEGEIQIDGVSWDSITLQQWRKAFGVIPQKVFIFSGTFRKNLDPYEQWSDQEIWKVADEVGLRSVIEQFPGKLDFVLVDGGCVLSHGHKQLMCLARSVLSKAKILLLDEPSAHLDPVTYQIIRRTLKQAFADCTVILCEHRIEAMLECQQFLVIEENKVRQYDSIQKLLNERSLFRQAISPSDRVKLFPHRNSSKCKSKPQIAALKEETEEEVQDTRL
# ASSAY_DETAILS: CFTR cell surface levels using HRP-tagged ΔF508-CFTR expressing CFBE cells, in the presence of a co-corrector
# Format: cell-based
# CONDITION: HRP-tagged ΔF508-CFTR expressing CFBE cells, in the presence of 3 μM co-corrector; read-out: EC50
pEC50: −log10 of the molar value.

| SMILES_STRING | EXPERIMENTAL_TARGET | VALUE_MODIFIER | pEC50 |
| --- | --- | --- | --- |
| CC(C)c1nn(C2CCCCC2)c2nc(C(=O)O)cc(C3=CC(C)(C)OC(C)(C)C3)c12 | ΔF508-CFTR (Homo sapiens, UniProt P13569, DEL508-508) | = | 5.95 |
| CCN1CCCN(c2cc(C(=O)O)nc3c2c(C(C)C)nn3-c2ccc(F)cc2)CC1 | ΔF508-CFTR (Homo sapiens, UniProt P13569, DEL508-508) | = | 5.78 |
| Cc1nn(-c2ccccc2)c2nc(C(=O)O)cc(C(=O)N3CCCCC3)c12 | ΔF508-CFTR (Homo sapiens, UniProt P13569, DEL508-508) | < | 5.00 |
| Cc1nn(-c2ccccc2)c2nc(C(=O)O)cc(-c3ccc(NC4CCC4)cc3)c12 | ΔF508-CFTR (Homo sapiens, UniProt P13569, DEL508-508) | = | 5.92 |
| O=C(O)c1cc(N2CC[C@@H](F)C2)c2c(C3CCC3)nn(-c3ccccc3)c2n1 | ΔF508-CFTR (Homo sapiens, UniProt P13569, DEL508-508) | = | 6.10 |
| CC(C)c1nn(-c2cccc(C(F)(F)F)c2)c2nc(C(=O)O)cc(-c3ccc(N(C)C4CCOCC4)nc3)c12 | ΔF508-CFTR (Homo sapiens, UniProt P13569, DEL508-508) | = | 6.37 |
| O=C(O)c1cc(N2CCC3(CCCC3)CC2)c2c(C3CCC3)nn(-c3ccccc3)c2n1 | ΔF508-CFTR (Homo sapiens, UniProt P13569, DEL508-508) | = | 5.95 |
| O=C(O)c1cc(N2CCN(CCCO)CC2)c2c(C3CCC3)nn(-c3ccccc3)c2n1 | ΔF508-CFTR (Homo sapiens, UniProt P13569, DEL508-508) | = | 5.52 |

----------
# EXPERIMENTAL_TARGET: ΔF508-CFTR (Homo sapiens, UniProt P13569, DEL508-508)
# Construct: host or cells: CFBE41o-, doxycycline-inducible
# ASSAY_DETAILS: CFTR cell surface levels using HRP-tagged ΔF508-CFTR expressing CFBE cells, in the presence of a co-corrector
# Type: cell-based
# CONDITION: HRP-tagged ΔF508-CFTR expressing CFBE cells, in the presence of 3 μM co-corrector; read-out: EC50
# From the text: Measuring CFTR Cell Surface Levels Using HRP-Tagged AF508-CFTR Expressing CFBE Cells The HRP-tagged AF508-CFTR cell assay measures the expression of CFTR-ΔF508 at the plasma membrane. […] When HRP-tagged AF508-CFTR is present at the plasma membrane, the HRP enzyme activity can be measured. The amount of CFTR-ΔF508 that can be rescued to the plasma membrane is correlated with the amount of functional enzyme that can be measured. […]
OBSERVABLE: log10 of EC50 (log10 of the value in µM)

| COMPOUND | READOUT_NUMBER |
| --- | --- |
| CC(C)c1nn([C@@H]2CCC[C@H](O)C2)c2nc(C(=O)O)cc(-c3ccc(N4CCOCC4)cc3)c12 (racemic) [compound 195] | 0.52 |
| Cc1nn(-c2cccc(N(C)C)c2)c2nc(C(=O)O)cc(-c3ccc(N4CCOCC4)cc3)c12 [compound 36] | 0.52 |
| CCOCC(=O)N1CCN(c2cc(C(=O)O)nc3c2c(C(C)C)nn3-c2ccc(F)cc2)CC1 [compound 775] | 0.22 |
| Cc1nn(-c2ccccc2)c2nc(C(=O)O)cc(-c3ccc(N4CCOCC4)cc3Cl)c12 [compound 26] | 0.04 |
| CN1CCN(CCC2CCN(c3cc(C(=O)O)nc4c3c(C3CCC3)nn4-c3ccccc3)CC2)CC1 [compound 695] | -0.92 |
| Cc1nn(-c2ccc(F)cc2F)c2nc(C(=O)O)cc(-c3ccc(N4CCOCC4)cc3)c12 [compound 105] | -0.06 |
| COCCN(C)c1cc(C(=O)O)nc2c1c(C1CCC1)nn2-c1ccccc1 [compound 422] | 0.00 |
| CC(C)c1nn(-c2cccc(N(C)C)c2)c2nc(C(=O)O)cc(-c3cnc(N4CCC(C#N)CC4)nc3)c12 [compound 199] | -0.04 |
| O=C(O)c1cc(N2CCC([C@H](F)CO)CC2)c2c(C3CCC3)nn(-c3ccccc3)c2n1 [compound 457] | -0.41 |
| O=C(O)c1cc(N2CCC(CN3CCN4C[C@@H](F)C[C@H]4C3)CC2)c2c(C3CCC3)nn(-c3ccccc3)c2n1 [compound 838] | -0.94 |
| Cc1nn(-c2ccccc2)c2nc(C(=O)O)cc(-c3ccc(N4CCC(O)CC4)cc3)c12 [compound 144] | 0.42 |
| Cc1cccc(-n2nc(C(C)C)c3c(N4CCC5(C4)CC5(F)F)cc(C(=O)O)nc32)c1 (stereo not drawn) [compound 271] | -0.40 |
| O=C(O)c1cc(OC2CCCCCC2)c2c(C3CCC3)nn(-c3ccccc3)c2n1 [compound 648] | -0.69 |
| Cc1nn(-c2ccccc2)c2nc(C(=O)O)cc(-c3ccc(N4CC(O)C4)cc3)c12 [compound 124] | 0.27 |
| O=C(O)c1cc(OCCN2CCCC2)c2c(C3CCC3)nn(-c3ccccc3)c2n1 [compound 628] | 0.52 |
| Cc1nn(-c2ccccc2)c2nc(C(=O)O)cc(N3CCC4(CC3)CN(C)C(=O)CO4)c12 [compound 288] | 0.88 |
| O=C(O)c1cc(OC2CN(C3CCCCC3)C2)c2c(C3CCC3)nn(-c3ccccc3)c2n1 [compound 599] | -0.42 |
| COC1CCN(C2CCN(c3cc(C(=O)O)nc4c3c(C3CCC3)nn4-c3ccc(F)cc3)CC2)CC1 [compound 892] | -0.22 |
| CC(=O)N1CCN(c2cc(C(=O)O)nc3c2c(C2CCC2)nn3-c2ccccc2)CC1 [compound 703] | -0.41 |
| COCCN(C)c1cccc(-n2nc(C(C)C)c3c(-c4ccc(N5CCOCC5)cc4)cc(C(=O)O)nc32)c1 [compound 172] | -0.32 |
| CC(C)(C)OC(=O)N1CCC(Oc2nn(-c3ccccc3)c3nc(C(=O)O)cc(-c4ccc(N5CCC(C#N)CC5)nc4)c23)C1 (stereo not drawn) [compound 552] | -0.40 |
| COCC(COC)Oc1cc(C(=O)O)nc2c1c(C(C)C)nn2-c1ccc(F)cc1 [compound 654] | 0.52 |
| CC(C)c1nn(C2CCCCC2)c2nc(C(=O)O)cc(-c3ccc(N4CCC(C#N)CC4)cc3)c12 [compound 185] | -0.28 |
| O=C(O)c1cc(N2CCC3(CC2)CCN(C2CC2)CC3)c2c(C3CCC3)nn(-c3ccc(F)cc3)c2n1 [compound 887] | -0.69 |
| COc1ccc(-n2nc(C3CCC3)c3c(N4CCC(N5CCOCC5)CC4)cc(C(=O)O)nc32)cc1F [compound 912] | -0.57 |
| Cc1nn(-c2ccccc2)c2nc(C(=O)O)cc(O[C@H]3CCN(C)C3)c12 [compound 337] | 0.62 |
| CCC1(COc2cc(C(=O)O)nc3c2c(C2CCC2)nn3-c2ccccc2)COCOC1 [compound 620] | -0.77 |
| CC(C)c1nn(-c2ccc(F)cc2)c2nc(C(=O)O)cc(N3CCN(C(C)(C)C)CC3)c12 [compound 788] | 0.22 |
| O=C(O)c1cc(N2CCC(N3CCN(C4COC4)CC3)CC2)c2c(C3CCC3)nn(-c3ccc(F)cc3)c2n1 [compound 899] | -0.51 |

----------
# EXPERIMENTAL_TARGET: ΔF508-CFTR (Homo sapiens, UniProt P13569, DEL508-508)
# Construct: host or cells: CFBE41o-, doxycycline-inducible
# ASSAY_DETAILS: CFTR cell surface levels using HRP-tagged ΔF508-CFTR expressing CFBE cells, intrinsic corrector capacity
# Assay type: cell-based
# CONDITION: HRP-tagged ΔF508-CFTR CFBE41o- cells, compounds alone (intrinsic corrector capacity), 20 hours at 33° C.; positive control 3 μM corrector
OBSERVABLE: % Activation (%)

| MOLECULE | OUTPUT_UNIT | READOUT_NUMBER |
| --- | --- | --- |
| CC(C)c1nn(-c2cc(F)cc(F)c2)c2nc(C(=O)O)cc(-c3ccc(N4CCC(C#N)CC4)cc3)c12 [compound 282] | % | 269.33 |
| Cc1nn(-c2ccccc2)c2nc(C(=O)O)cc(-c3ccc(N4CC5(COC5)C4)cc3)c12 [compound 126] | % | 156.45 |
| Cc1nn(-c2ccn(C)c(=O)c2)c2nc(C(=O)O)cc(-c3ccc(N4CCOCC4)cc3)c12 [compound 94] | % | 3.061 |
| Cc1nn(-c2ccccc2)c2nc(C(=O)O)cc(N3CC4(CCCCC4)C3)c12 [compound 309] | % | 67.305 |
| Cc1nn(-c2cccc(C(N)=O)c2)c2nc(C(=O)O)cc(-c3ccc(N4CCOCC4)cc3)c12 [compound 59] | % | 13.69 |
| Cc1nn(-c2ccccc2)c2nc(C(=O)O)cc(N3CCC(F)(F)C3)c12 [compound 299] | % | 51.845 |
| Cc1cccc(-n2nc(C(C)C)c3c(N4CCCCC4)cc(C(=O)O)nc32)c1 [compound 162] | % | 147.97 |
| COC1CCN(c2cc(C(=O)O)nc3c2c(C)nn3-c2ccccc2)CC1 [compound 143] | % | 109.45 |
| CO[C@H]1CCC[C@@H](n2nc(C(C)C)c3c(-c4ccc(N5CCOCC5)cc4)cc(C(=O)O)nc32)C1 [compound 205] | % | 109 |
| Cc1nn(-c2ccccc2)c2nc(C(=O)O)cc(N3CC4(CCOCC4)C3)c12 [compound 293] | % | 90.275 |
| Cc1nn(-c2ccccc2)c2nc(C(=O)O)cc(N3CC[C@H](F)C3)c12 [compound 300] | % | 41.065 |
| Cc1nn(-c2ccccc2)c2nc(C(=O)O)cc(-c3ccc(N4CCC4)cc3)c12 [compound 135] | % | 165.1 |
| COC1CCC(Oc2cc(C(=O)O)nc3c2c(C)nn3-c2ccccc2)CC1 (stereo not shown) [compound 376] | % | 109.7 |
| Cc1nn(-c2ccccc2)c2nc(C(=O)O)cc(-c3ccc(N4CCN(C)CC4)cc3)c12 [compound 9] | % | 31.76 |
| CC(C)Oc1nn(-c2ccccc2)c2nc(C(=O)O)cc(-c3ccc(N4CCOCC4)cc3)c12 [compound 390] | % | 177.8 |
| CC(C)c1nn(-c2cccc(N(C)C)c2)c2nc(C(=O)O)cc(-c3cnc(N(C)C4CCOCC4)nc3)c12 [compound 200] | % | 330.83 |
| CC(C)c1nn(-c2cccc(N3CCOCC3)c2)c2nc(C(=O)O)cc(-c3ccc(N(C)C)nc3)c12 [compound 89] | % | 310.15 |
| Cc1nn(-c2ccccc2)c2nc(C(=O)O)cc(N3CC4(CCCCO4)C3)c12 [compound 312] | % | 61.325 |
| CC(C)OC1CCN(c2cc(C(=O)O)nc3c2c(C2CCC2)nn3-c2ccccc2)CC1 [compound 372] | % | 179 |
| Cc1cccc(-n2nc(C(C)C)c3c(N4CCC(C#N)CC4)cc(C(=O)O)nc32)c1 [compound 191] | % | 208.12 |
| CC(C)c1nn(C2CCCCC2)c2nc(C(=O)O)cc(-c3ccc(N4CCOCC4)cc3)c12 [compound 54] | % | 167.9 |
| CC(C)c1nn(C2CCN(CC#N)C2)c2nc(C(=O)O)cc(-c3ccc(N4CCOCC4)cc3)c12 (stereo not shown) [compound 141] | % | 5.399 |
| Cc1nn(-c2ccccc2)c2nc(C(=O)O)cc(OCC3CCC(F)(F)C3)c12 (stereo not shown) [compound 382] | % | 80.645 |
| CN(C)c1ccc(-c2cc(C(=O)O)nc3c2c(C2CC2)nn3C2CCCCC2)cn1 [compound 193] | % | 194.98 |
| Cc1nn(-c2cccc(N3CCOCC3)c2)c2nc(C(=O)O)cc(-c3ccc(N4CCOCC4)cc3)c12 [compound 32] | % | 176.7 |
| Cc1nn(-c2cccc(C(F)(F)F)c2)c2nc(C(=O)O)cc(-c3ccc(N4CCOCC4)cc3)c12 [compound 22] | % | 131.28 |
| Cc1nn(-c2ccc(OC(F)(F)F)cc2)c2nc(C(=O)O)cc(-c3ccc(N4CCOCC4)cc3)c12 [compound 31] | % | 96.335 |
| Cc1nn(-c2ccccc2)c2nc(C(=O)O)cc(-c3ccc(N4CC(C)OC(C)C4)cc3)c12 (stereo not shown) [compound 114] | % | 251.05 |
| CC(C)c1nn(-c2ccnc(N3CCCC3)c2)c2nc(C(=O)O)cc(-c3ccc(N4CCC(C#N)CC4)cc3)c12 [compound 392] | % | 302 |
| Cc1nn(-c2ccccc2)c2nc(C(=O)O)cc(OCC3CCCCC3)c12 [compound 152] | % | 75.36 |
| CC(C)c1nn(C2CCCCC2)c2nc(C(=O)O)cc(-c3ccc(N4CCC(F)(F)C4)nc3)c12 [compound 181] | % | 149.2 |

These entries and their values trace back to patent US9796711B2.
